- Assayed System: T1, human PSMA on PSMA-expressing cells (human, UniProt Q04609 1-750)
- T1 construct: Cell line is named under assay or readout in each row; also called B16F10.9/hPSMA; B16F10.9/PSMA
- T1 sequence (Q04609 whole entry): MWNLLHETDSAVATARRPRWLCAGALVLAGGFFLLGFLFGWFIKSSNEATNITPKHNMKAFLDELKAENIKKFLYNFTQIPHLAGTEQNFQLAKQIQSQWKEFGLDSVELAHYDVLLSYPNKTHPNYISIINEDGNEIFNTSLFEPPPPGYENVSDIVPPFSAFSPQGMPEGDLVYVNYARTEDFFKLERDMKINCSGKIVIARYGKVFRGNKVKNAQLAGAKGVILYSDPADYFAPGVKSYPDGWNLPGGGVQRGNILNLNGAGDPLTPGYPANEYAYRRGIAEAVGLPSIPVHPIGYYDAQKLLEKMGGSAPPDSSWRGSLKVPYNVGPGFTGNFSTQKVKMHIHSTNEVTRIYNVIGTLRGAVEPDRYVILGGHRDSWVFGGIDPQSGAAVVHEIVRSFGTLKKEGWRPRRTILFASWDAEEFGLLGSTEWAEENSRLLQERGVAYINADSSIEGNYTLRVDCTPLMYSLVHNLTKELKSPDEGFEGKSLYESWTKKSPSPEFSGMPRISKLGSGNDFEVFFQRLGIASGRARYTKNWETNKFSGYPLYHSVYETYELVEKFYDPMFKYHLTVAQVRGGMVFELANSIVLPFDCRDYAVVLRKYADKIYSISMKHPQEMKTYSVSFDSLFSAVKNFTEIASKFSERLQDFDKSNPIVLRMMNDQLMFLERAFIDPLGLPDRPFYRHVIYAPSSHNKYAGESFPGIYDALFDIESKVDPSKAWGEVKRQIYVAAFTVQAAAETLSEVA
- Experimental Protocol: FACS on B16F10.9/PSMA cells
pEC50: −log10 of the molar value.

# Binder, pEC50
records = [
    ("BSPSMA/CD3-800 (bispecific antibody, IgG4, V domains shown, modified (chimeric) IgG4 Fc domain; also called PSMA-VH-11810 x CD3-VH-G8) VH 1: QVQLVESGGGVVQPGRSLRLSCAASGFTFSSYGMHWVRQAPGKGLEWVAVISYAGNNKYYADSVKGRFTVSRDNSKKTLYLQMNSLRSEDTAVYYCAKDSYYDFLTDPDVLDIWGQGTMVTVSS VH 2: EVQLVESGGGLVQPGRSLRLSCAASGFTFDDYSMHWVRQAPGKGLEWVSGISWNSGSIGYADSVKGRFTISRDNAKNSLYLQMNSLRAEDTALYYCAKYGSGYGKFYHYGLDVWGQGTTVTVSS VL: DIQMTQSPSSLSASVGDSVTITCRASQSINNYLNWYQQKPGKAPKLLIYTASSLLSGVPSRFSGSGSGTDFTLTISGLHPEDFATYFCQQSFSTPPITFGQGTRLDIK", 8.88),
]

Sourced from patent US20190127480A1
